src = ChEMBL document CHEMBL4825701

- Test system: Trypanosoma brucei rhodesiense
- MEASUREMENT_NOTES: Antitrypanosomal activity against Trypanosoma brucei rhodesiense STIB900 measured after 72 hrs by alamar blue dye based fluorimetry analysis
- Format: functional, organism-based
- CONDITION_NOTES: STIB900, 72 h
pIC50: −log10 of the molar value.
Label scheme for pIC50: lower than 7 is false, 7 and above is true.

Completed entries (count: 6):
In [3]: df
Out[3]:
                                 smiles_str  category
0  CO/N=C(\N)c1ccc(Oc2cccc(Oc3ccc(/C(N)=N\OC)cc3)n2)cc1     false
1  N=C(N)c1ccc(Cc2ccc(Cc3ccc(C(=N)N)cc3)o2)cc1      true
2  CO/N=C(/N)c1ccc(Cc2ccc(Cc3ccc(/C(N)=N\OC)cc3)cc2)cc1     false
3  N=C(N)c1ccc(Cc2ccc(-c3ccc(C(=N)N)cc3)nc2)cc1      true
4  N=C(N)c1ccc(-c2ccc(Cc3cccc(C(=N)N)c3)cc2)cc1      true
5  N=C(N)c1ccc(Cc2ccc(Cc3cccc(C(=N)N)c3)cc2)cc1      true

Moving on to another compound below.
Task: Assess whether reported pIC50 for N=C(N)c1ccc(Oc2ccc(-c3ccc(C(=N)N)cc3)cn2)cc1 sits at 7 or higher.
Result: true

---

- MEASUREMENT_NOTES: Selectivity index, ratio of IC50 for cytotoxicity against rat L6 cells to IC50 for antiplasmodial activity against chloroquine and pyrimethamine resistant Plasmodium falciparum K1 infected in human red blood cells
- Format: toxicity, cell-based
- CONDITION_NOTES: read-out: Selectivity Index
Label scheme for selectivity ratio: lower than 1000 is condition not met, 1000 and above is condition met.

Below are worked cases with known answers.
>>> print(df.to_string())
                                 smiles_str           category
0  N=C(N)c1ccc(Cc2ccc(Cc3cccc(C(=N)N)c3)cc2)cc1      condition met
1  CO/N=C(\N)c1ccc(-c2ccc(Oc3ccc(/C(N)=N\OC)cc3)nc2)cc1  condition not met
2  CN(C)CCCC(=O)O/N=C(\N)c1ccc(Cc2ccc(-c3ccc(/C(N)=N\OC(=O)CCCN(C)C)cc3)cc2)cc1  condition not met

# ---- query molecule ----
Task: Decide: selectivity ratio of N=C(N)c1ccc(Cc2ccc(-c3ccc(C(=N)N)cc3)nc2)cc1 >= 1000?
Result: condition met

---

- Test system: Poly(dA-dT)oligonucleotide
ASSAY_METRIC: ΔTm (°C)
Numbers only; they are read as °C.

Task: Quote ΔTm reported for N=C(N)c1ccc(Cc2ccc(-c3ccc(C(=N)N)cc3)cc2)cc1 please.
Result: 9

Task: Identify the reported ΔTm for the following entry. N=C(N)c1ccc(Oc2cccc(Oc3ccc(C(=N)N)cc3)n2)cc1
Result: 1.25

Task: Name the recorded ΔTm of the item N=C(N)c1ccc(Cc2ccc(Cc3cccc(C(=N)N)c3)cc2)cc1 in your answer.
Result: 0.5

Task: Answer with the recorded ΔTm of N=C(N)c1ccc(Cc2ccc(Cc3ccc(C(=N)N)cc3)cc2)cc1 only.
Result: 1
